Where do the numbers come from? From PubChem BioAssay (NCI).

assay: NCI Yeast Anticancer Drug Screen. Data for the cln2 rad14 strain (AID 165); details: S. cerevisiae cln2 rad14 strain, at 50.0 µM
About 79,000 compounds went through this panel and 15% of them were active in at least one assay; those are over-represented in the sample as a whole. Active and inactive are the calls of the source. Rule as the data show it: active = growth inhibition above about 70%; inactive = the rest.
Hello, when you answer, please use one of the following outcomes: active, inactive

>  <MOLECULE>
COc1ccc2c(c1OC)C(C(Cl)(Cl)Cl)N1CCc3cc4c(cc3C1=C2)OCO4 (stereo unspecified)

>  <LABEL CLASS>
active

$$$$
>  <MOLECULE>
CC(C)(CN1CCCCC1)C(=O)CC(SCCS(=O)(=O)O)c1ccc(Cl)cc1 (stereo unspecified)

>  <LABEL CLASS>
inactive

$$$$

## Input What was the test verdict on `Cn1c2ccccc2c2c(C#N)c(C#N)c([N+](=O)[O-])cc21` ?
## Output inactive

## Input What was the test verdict on CCCCCCN(CCCCCC)CC(O)c1cc(-c2ccccc2)nc2c(O)cccc12 (stereo unspecified) ?
## Output inactive

## Input What was the test verdict on `Cc1[nH]c2ccccc2c1C(c1ccccc1)c1c(C)[nH]c2ccccc12` ?
## Output active

## Input What was the test verdict on `O=S(=O)(Cl)c1ccc(Br)cc1` ?
## Output inactive

## Input What was the test verdict on CCCCCCCCCCCC1C(C#N)C(=O)NC(=O)C1C#N (stereo unspecified) ?
## Output inactive

====

Experiment: NCI Yeast Anticancer Drug Screen. Data for the mec2-1 strain (AID 157)
Settings: S. cerevisiae mec2-1 strain, at 5.0 µM (retest, dose inferred, filed as 0.5), active compounds read high
Description: Growth inhibition of yeast strains with defined genetic alterations is measured as a screen for potential anti-cancer activity. Selected strains with alterations in DNA damage repair or cell cycle control were exposed to compounds and growth inhibition was measured relative to vehicle treated controls. The strain used in this assay is mec2-1
This is part of a sample that, as a whole, favours compounds with a hit. Of some 79,000 tested, about 15% had one in any assay.
Assign yes to entries whose growth inhibition meets or exceeds 10%; assign no to the rest.

Reference set (8 entries):
>  <MOLECULE>
CCOC(=O)C(=O)Nc1ccc(Cl)cc1Cl

>  <LABEL CLASS>
no

$$$$
>  <MOLECULE>
Cc1ccc2c(c1)CC1(C2)Cc2ccc(C)cc2C1=O (stereo unspecified)

>  <LABEL CLASS>
no

$$$$
>  <MOLECULE>
CCNc1ccc2c(c1)Cc1ccccc1-2

>  <LABEL CLASS>
no

$$$$
>  <MOLECULE>
CN(C)CCC(/C=C/c1ccccc1)=N\Nc1ccc(Cl)c(Cl)c1

>  <LABEL CLASS>
yes

$$$$
>  <MOLECULE>
CC(=O)c1ccc(Br)cc1NC1=CC(=O)c2ncccc2C1=O

>  <LABEL CLASS>
yes

$$$$
>  <MOLECULE>
CCCCCCCCCN(CCCCCCCCC)CC(O)c1cc2c(c3ccccc13)CCCC2 (stereo unspecified)

>  <LABEL CLASS>
yes

$$$$
>  <MOLECULE>
COC(=O)C([NH-])c1ccccc1.COC(=O)C([NH-])c1ccccc1.[Cl][Pt+2][Cl] (stereo unspecified)

>  <LABEL CLASS>
yes

$$$$
>  <MOLECULE>
O=C(O)c1ccc2c3c(ncnc13)-c1ccccc1C2=O

>  <LABEL CLASS>
yes

$$$$

## Input Is growth inhibition at least 10%? Consider O=C1OC(c2ccccc2)CC1Cc1ccccc1 (stereo unspecified)
## Output no

## Input Is growth inhibition at least 10%? Consider `COc1ccc(/C=C/c2c[n+]([O-])ccc2[N+](=O)[O-])cc1`
## Output yes
